Catalogue of EC50 values
Target: human RXFP1 (Homo sapiens)
Construct: expressed in transfected cells
Sequence (Q9HBX9 1-757): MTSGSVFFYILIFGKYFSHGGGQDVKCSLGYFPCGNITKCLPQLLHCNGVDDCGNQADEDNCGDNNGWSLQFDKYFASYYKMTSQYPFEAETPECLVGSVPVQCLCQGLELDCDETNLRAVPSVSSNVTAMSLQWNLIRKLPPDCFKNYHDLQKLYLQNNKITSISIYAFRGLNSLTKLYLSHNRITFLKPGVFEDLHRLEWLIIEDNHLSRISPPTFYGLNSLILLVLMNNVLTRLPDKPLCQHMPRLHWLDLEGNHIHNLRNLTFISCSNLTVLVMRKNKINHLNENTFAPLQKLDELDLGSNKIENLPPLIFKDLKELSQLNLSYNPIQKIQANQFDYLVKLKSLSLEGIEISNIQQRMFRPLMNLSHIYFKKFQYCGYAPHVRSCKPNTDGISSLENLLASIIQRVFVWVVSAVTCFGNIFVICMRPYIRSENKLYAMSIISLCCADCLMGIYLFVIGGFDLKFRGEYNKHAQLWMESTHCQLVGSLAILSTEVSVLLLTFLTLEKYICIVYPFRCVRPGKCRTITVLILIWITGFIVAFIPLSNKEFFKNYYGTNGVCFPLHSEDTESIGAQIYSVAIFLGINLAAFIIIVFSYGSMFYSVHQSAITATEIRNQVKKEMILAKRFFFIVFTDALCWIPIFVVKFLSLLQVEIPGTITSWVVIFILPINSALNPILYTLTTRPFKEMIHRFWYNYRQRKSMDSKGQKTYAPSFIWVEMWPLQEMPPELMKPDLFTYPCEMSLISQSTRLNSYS
Test: RXFP1 cAMP assay (hRXFP1 HEK293 cAMP assay, HTRF)
Format: cell-based
Conditions: HEK293 cells stably expressing human RXFP1, 30 min at room temperature, read-out: cAMP hRXFP1 HEK293 Assay EC50
assay_endpoint: EC50 (µM)

* COc1ccc(C2=NOC3CC(CO)CC23)cc1C(=O)N[C@H]1[C@@H](C(=O)Nc2ccc(F)c(C(F)(F)F)c2)[C@H]2CC[C@@H]1/C2=C\c1cnc(C)s1 (some centres unmarked) [compound 804] | 0.004
* COc1cc(F)c(F)cc1C(=O)N[C@@H]1C2CCC(C2=C(C)C)[C@@H]1C(=O)Nc1cccc(S(=O)(=O)C(F)(F)F)c1 (some centres unmarked) [compound 55] | 0.23
* COCCOc1ccc(-c2cc(C(=O)O)ccc2F)cc1C(=O)N[C@@H]1C2CCC(/C2=C/C2CC2)[C@@H]1C(=O)Nc1ccc(F)c(C(F)(F)F)c1 (some centres unmarked) [compound 200] | 0.037
* COc1ccc(C2=NO[C@H]3C[C@H](CO)C[C@@H]23)cc1C(=O)N[C@H]1[C@@H](C(=O)N[C@H](C)C2(C)CC2)[C@H]2CC[C@@H]1/C2=C\C1CC(F)(F)C1 [compound 823] | 0.0026
* COc1ccc(-c2cc(C(OC(=O)N(C)C3CCC3)C(F)(F)F)ccc2F)cc1C(=O)N[C@@H]1C2CCC(/C2=C/C2CC2)[C@@H]1C(=O)Nc1ccc(F)c(C(F)(F)F)c1 (some centres unmarked) [compound 209] | 0.001
* Cc1ccc(C2=NOC3COCC23)cc1C(=O)N[C@H]1[C@@H](C(=O)Nc2ccc(F)c(C(F)(F)F)c2)[C@H]2CC[C@@H]1/C2=C\C1CC1 (single isomer, unassigned) [compound 716] | 1.98
* COc1ccc(C2=NO[C@@H]3C[C@H](C(F)(F)F)CN23)cc1C(=O)N[C@H]1[C@@H](C(=O)Nc2ccc(F)c(C(F)(F)F)c2)[C@H]2CC[C@@H]1/C2=C\C1CC1 [compound 847] | 0.0025
* COCC1(NC(=O)[C@@H]2[C@H](NC(=O)c3cc(C4=NOC5COCC45)ccc3OC)[C@@H]3CC[C@H]2/C3=C/C2CC2)CCCC1 (some centres unmarked) [compound 632] | 0.19
* COc1ccc(C2=NO[C@H]3CC(CO)C[C@@H]23)cc1C(=O)N[C@H]1[C@@H](C(=O)Nc2ccc(F)c(C(F)(F)F)c2)[C@H]2CC[C@@H]1/C2=C\CC1CCC1 (some centres unmarked) [compound 837] | 0.0043
* COc1ccc(C#N)cc1C(=O)N[C@@H]1C2CCC(/C2=C/c2ccccc2)[C@@H]1C(=O)Nc1ccc(F)c(C(F)(F)F)c1 (some centres unmarked) [compound 128] | 0.055
* COc1ccc(C2=NOC3C(O)CC(O)C23)cc1C(=O)N[C@H]1[C@@H](C(=O)Nc2ccc(F)c(C(F)(F)F)c2)[C@H]2CC[C@@H]1/C2=C\C1CC1 (single isomer, unassigned) [compound 674] | 0.481
